Target: wild-type human melanocortin 4 receptor (WT-hMC4R) (Homo sapiens, UniProt P32245)
Construct: expressed in transfected cells; cDNA from UMR cDNA resource center
Sequence (P32245 whole entry): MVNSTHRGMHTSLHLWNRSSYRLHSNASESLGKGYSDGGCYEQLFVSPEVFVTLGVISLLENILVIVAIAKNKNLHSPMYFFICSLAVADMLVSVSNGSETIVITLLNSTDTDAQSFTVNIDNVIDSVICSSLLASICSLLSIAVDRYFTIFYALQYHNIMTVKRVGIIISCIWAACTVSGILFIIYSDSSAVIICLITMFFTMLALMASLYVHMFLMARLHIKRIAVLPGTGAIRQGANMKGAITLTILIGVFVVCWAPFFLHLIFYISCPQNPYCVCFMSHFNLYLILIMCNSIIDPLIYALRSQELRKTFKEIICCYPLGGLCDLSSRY
Experiment: Cyclic AMP assay (HTRF), antagonist competition against NDP-α-MSH
Assay type: cell-based
Settings: HEK293T cells expressing double-tagged WT-hMC4R; cAMP accumulation; 1 hour compound then 4 nM NDP-α-MSH 30 min
Provide the reported IC50 of each item.

Use the examples below as a reference point.
COc1ccc(Cl)cc1-c1nn2ccc(C(=O)N(CCC(C)C)CCC(C)C)cc2c1C#CCCN1CCCCC1 = 1 to 5 µM
CC(C)CCN(CCC(C)C)C(=O)c1ccn2nc(-c3cccc(Br)c3)c(CCCN3CCCCC3)c2c1 = < 0.5 µM
CC(C)CCN(CCC(C)C)C(=O)c1ccn2nc(-c3ccc(Br)cc3)c(/C=C/CN3CCOCC3)c2c1 = 5 to 15 µM

Give measured IC50 for every item shown.
1. CCOc1ccc(-c2nn3ccc(C(=O)N(CCC(C)C)CCC(C)C)cc3c2CCCN2CCC(F)(F)CC2)cc1
2. CCOc1ccc(-c2nn3ccc(C(=O)N(CCC(C)C)CCC(C)C)cc3c2/C=C/CN2CCCCC2)cc1
3. CC(C)CCN(CCC(C)C)C(=O)c1ccn2nc(-c3ccc(-c4noc(-c5ccccc5)n4)cc3)c(CCCN3CCCCC3)c2c1

// result
1. 5 to 15 µM
2. 1 to 5 µM
3. 1 to 5 µM

====

Target: wild-type human melanocortin 4 receptor (WT-hMC4R) (Homo sapiens, UniProt P32245)
Construct: cDNA from UMR cDNA resource center
Test: Cyclic AMP assay (HTRF), antagonist competition against NDP-α-MSH
Settings: HEK293T cells expressing double-tagged WT-hMC4R; cAMP accumulation; 1 hour compound then 4 nM NDP-α-MSH 30 min
Can you tell me IC50 for the items I'm about to list?

The examples below pair each entry with its known result.
CC(C)CCN(CCC(C)C)C(=O)c1ccn2nc(-c3ccc(-c4noc(=O)[nH]4)cc3)c(CCCN3CCCCC3)c2c1 [Example 103] = 500 to 1000 nM
CC(C)CCN(CCC(C)C)C(=O)c1ccn2nc(-c3ccc(Cl)cc3)c(/C=C/CN3CCCCC3)c2c1 [Example 10] = 500 to 1000 nM
COc1ccc(Cl)cc1-c1nn2ccc(C(=O)N(CCC(C)C)CCC(C)C)cc2c1C#CCN1CCCCC1 [Example 101] = < 500 nM

I'm hoping you can list IC50 for every molecule here, please.
1. COc1ccc(-c2nn3ccc(C(=O)N(CCC(C)C)CCC(C)C)cc3c2CCCN2CCC(C)CC2)cc1 [Example 146]
2. CC(C)CCN(CCC(C)C)C(=N)c1ccn2nc(-c3ccc(C(N)=O)cc3)c(CCCN3CCCCC3)c2c1 [Example 126]
3. COc1ccc(-c2nn3ccc(C(=O)N(CCC(C)C)CCC(C)C)cc3c2/C=C/CN2CCCCC2C)cc1 (centres unmarked) [Example 169]
4. CC(C)CCN(CCC(C)C)C(=O)c1ccn2nc(-c3ccc(-c4noc(-c5ccncc5)n4)cc3)c(CCCN3CCCCC3)c2c1 [Example 139]
5. COc1cccc(-c2nn3ccc(C(=O)N(CCC(C)C)CCC(C)C)cc3c2CCCN2CCCCC2)c1 [Example 15]

// result
["1000 to 5000 nM", "< 500 nM", "500 to 1000 nM", "< 500 nM", "< 500 nM"]

====

Target: wild-type human melanocortin 4 receptor (WT-hMC4R) (Homo sapiens, UniProt P32245)
Construct: cDNA from UMR cDNA resource center
Test: Cyclic AMP assay (HTRF), antagonist competition against NDP-α-MSH
Details: HEK293T cells expressing double-tagged WT-hMC4R; cAMP accumulation; 1 hour compound then 4 nM NDP-α-MSH 30 min
pIC50: −log10 of the molar value.
Measured property: pIC50

CNCCCc1c(-c2ccc(OC)cc2)nn2ccc(C(=O)N(CCC(C)C)CCC(C)C)cc12 = 4.82 to 5.30
CC(C)CCN(CCC(C)C)C(=O)c1ccn2nc(-c3ccc(C(N)=O)cc3)c(/C=C/CN3CCCCC3)c2c1 = 6.00 to 6.30
COc1ccc(Nc2nn3ccc(C(=O)N(CCC(C)C)CCC(C)C)cc3c2/C=C/CN2CCCCC2)cc1 = > 6.30

Can you give me pIC50 for all of these, one by one?
1. CC(C)CCN(CCC(C)C)C(=O)c1ccn2nc(-c3ccc(-c4noc(Cc5ccc(F)cc5)n4)cc3)c(CCCN3CCCCC3)c2c1
2. CC(C)CCN(CCC(C)C)C(=O)c1ccn2nc(-c3ccc(C(=N)N)cc3)c(CCCN3CCCCC3)c2c1

// result
["4.82 to 5.30", "> 6.30"]

====

Target: wild-type human melanocortin 4 receptor (WT-hMC4R) (Homo sapiens)
Construct: cDNA from UMR cDNA resource center
Assay: Cyclic AMP assay (HTRF), antagonist competition against NDP-α-MSH
Details: HEK293T cells expressing double-tagged WT-hMC4R; cAMP accumulation; 1 hour compound then 4 nM NDP-α-MSH 30 min
I'd appreciate it if you could supply IC50 values for the items below.

Quick request: IC50 for each listed item, please.
1. CC(C)CCN(CCC(C)C)C(=O)c1ccn2nc(-c3cccc(C(C)O)c3)c(CCCN3CCCCC3)c2c1 (stereo not drawn)
2. COc1ccc(-c2nn3ccc(C(=O)N(CCC(C)C)CCC(C)C)cc3c2/C=C/CN2CCCCC2)cc1

// result
1. 500 to 1000 nM
2. 500 to 1000 nM

// query Name the recorded IC50 of COc1ccc(Nc2nn3ccc(C(=O)N(CCC(C)C)CCC(C)C)cc3c2C(=O)NCCN2CCCCC2)cc1 , assay system wild-type human melanocortin 4 receptor (WT-hMC4R) (Homo sapiens).
// result 500 to 1000 nM
